assay: in vivo; format: in vivo, adult, male C57BL/6J mice; conditions: mouse, in vivo, po, 10 mg/kg, brain, 30 min, 10 mg/kg PO, mouse; read-out: PK data, Brain, 30 min
Measurement kind: concentration at 0.5 h

> print(dat)
                       given.smiles        measured
1  CN(CCc1c[nH]c2ccccc12)CCC(F)(F)F  720 to 4710 nM

API: the following record is the query input.
// field: concentration at 0.5 h; key: CN(CCc1c[nH]c2cccc(O)c12)CCC(F)(F)F ; value = 120 to 420 nM

====

target: 5-HT2A receptor (Homo sapiens, UniProt P28223); construct: expressed in transfected cells; test: 5-HT2A receptor functional screening assay (efficacy relative to maximal 5-HT response); type: cell-based; settings: 500 nM
Sequence (P28223 whole entry): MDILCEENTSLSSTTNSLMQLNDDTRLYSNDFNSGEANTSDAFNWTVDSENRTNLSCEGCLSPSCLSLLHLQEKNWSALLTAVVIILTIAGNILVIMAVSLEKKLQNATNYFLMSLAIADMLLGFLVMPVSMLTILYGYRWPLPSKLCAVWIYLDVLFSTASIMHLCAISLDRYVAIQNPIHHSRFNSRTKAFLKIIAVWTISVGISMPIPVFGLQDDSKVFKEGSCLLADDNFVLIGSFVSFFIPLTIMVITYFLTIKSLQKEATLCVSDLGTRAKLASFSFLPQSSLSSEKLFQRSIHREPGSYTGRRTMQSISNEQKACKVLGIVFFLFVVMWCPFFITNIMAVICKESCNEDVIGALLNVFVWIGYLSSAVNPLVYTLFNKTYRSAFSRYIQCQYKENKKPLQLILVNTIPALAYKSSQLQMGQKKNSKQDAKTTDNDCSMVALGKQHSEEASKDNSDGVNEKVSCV
Returns Y if the recorded activation at 0.5 µM is greater than or equal to 20%, and N otherwise.

Example entries and their recorded answers appear below.
> print(dat)
                               compound  answer.label
1  COc1ccc2[nH]cc(CCN(C)CCC(F)(F)F)c2c1             Y
2   CN(CCc1c[nH]c2cccc(O)c12)CCC(F)(F)F             Y
3   FC(F)CCN(CCc1c[nH]c2ccccc12)CCC(F)F             N

Alright, here's another compound for you.
(Q) Say whether CN(CCc1c[nH]c2ccccc12)CCC(F)(F)F shows activation at 0.5 µM of 20% or more.
(A) N

====

target: human serotonin 5-HT2A receptor (Homo sapiens); construct: host or cells: HEK293 (ATCC CRL-1573); experiment: Radioligand ([3H]LSD) competition binding, 5-HT2A receptor; conditions: in words; up to 10 μM for partial competition
Sequence (P28223 whole entry): as above
Measurement kind: competition for [3H]LSD-labeled 5-HT2A receptors

Below are worked cases with known answers.
> print(dat)
                                   compound                  measured
1  CN(CCc1c[nH]c2cccc(O)c12)CCC(F)(F)F [III-6]      complete competition
2      FC(F)(F)CNCCc1c[nH]c2ccccc12 [II-20]  only partial competition
3   CN(CCc1c[nH]c2ccccc12)CC(F)(F)F [II-19]  only partial competition
4  FC(F)(F)CN(CCc1c[nH]c2ccccc12)CC(F)(F)F [II-10]  only partial competition

Per the record, CN(CCc1c[nH]c2ccccc12)CCC(F)(F)F [II-6] has competition for [3H]LSD-labeled 5-HT2A receptors of complete competition

====

experiment: in vivo; assay type: in vivo, adult, male C57BL/6J mice; conditions: mouse, in vivo, po, 10 mg/kg, brain, 10 min, 10 mg/kg PO, mouse; read-out: PK data, Brain, 10 min
Measurement kind: concentration at 10 min

> print(dat)
                                  compound          measured
1  CN(CCc1c[nH]c2ccccc12)CCC(F)(F)F [II-6]  1550 to 12600 nM

Proceed to the following item.
Noted for CN(CCc1c[nH]c2cccc(O)c12)CCC(F)(F)F [III-6] : its concentration at 10 min reads 200 to 1300 nM

====

Test: in vivo
Type: in vivo, adult, male C57BL/6J mice
Conditions: mouse, in vivo, po, 10 mg/kg, brain, 120 min, 10 mg/kg PO, mouse; read-out: PK data, Brain, 120 min
Experimental: PK profiles were established in adult, male C57BL/6J (Jackson Laboratories). Mice were housed in standard laboratory cages with ad libitum access to food and water, and were acclimated to the vivarium for at least one week prior to testing in a procedure room. […] Quantification of the parent molecule was done using LC-MS/MS method (LLOQ, 0.9 nM).
Measurement kind: concentration at 2 h

> print(dat)
                                   molecule      measurement.kind    measured
1  CN(CCc1c[nH]c2cccc(O)c12)CCC(F)(F)F [III-6]  concentration at 2 h  3 to 20 nM

Looking up CN(CCc1c[nH]c2ccccc12)CCC(F)(F)F [II-6] , I found its concentration at 2 h recorded as 21 to 1130 nM

====

target: 5-HT2A receptor (Homo sapiens, UniProt P28223); construct: expressed in transfected cells; assay: Dose-response 5-HT2A functional assay (IP1 formation); type: cell-based; settings: dose-response curve had not plateaued at 3 μM
pEC50: −log10 of the molar value.
Measurement kind: pEC50

pEC50 reported for this compound COc1ccc2[nH]cc(CCN(C)CCC(F)(F)F)c2c1 : < 5.52

====

molecular target: 5-HT2B receptor (Homo sapiens, UniProt P41595); experiment: Dose-response 5-HT2B functional assay (IP1 formation); conditions: IP1 formation
Sequence (P41595 whole entry): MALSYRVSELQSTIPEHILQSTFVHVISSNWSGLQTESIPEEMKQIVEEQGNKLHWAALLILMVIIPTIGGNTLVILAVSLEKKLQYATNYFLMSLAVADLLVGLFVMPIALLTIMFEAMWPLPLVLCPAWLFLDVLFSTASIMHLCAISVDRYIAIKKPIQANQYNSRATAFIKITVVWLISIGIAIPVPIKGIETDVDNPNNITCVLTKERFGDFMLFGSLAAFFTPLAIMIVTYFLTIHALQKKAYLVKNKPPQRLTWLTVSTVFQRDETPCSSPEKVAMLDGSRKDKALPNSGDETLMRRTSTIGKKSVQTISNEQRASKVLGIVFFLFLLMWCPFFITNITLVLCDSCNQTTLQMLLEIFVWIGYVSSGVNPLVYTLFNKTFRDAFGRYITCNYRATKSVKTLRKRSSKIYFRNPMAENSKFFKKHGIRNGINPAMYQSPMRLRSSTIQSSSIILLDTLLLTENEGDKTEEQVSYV
Measurement kind: EC50 (nM)
Field format: number, assumed nM, no unit text.

> print(dat)
                             given.smiles  measurement.kind  unit.label  measured
1  Oc1cccc2[nH]cc(CCN(CCC(F)F)CCC(F)F)c12              EC50          nM        96

From here, focus on the item given below.
The value of EC50 measured for the compound COc1ccc2[nH]cc(CCN(C)CCC(F)(F)F)c2c1 turned out to be 394

====

target: UniProt:P28223
pKi: −log10 of the molar value.
Measurement kind: pKi

CN(CCc1c[nH]c2ccccc12)[S+]([O-])C(F)(F)F (stereo not shown) on UniProt:P28223 gives pKi = < 5.52

====

Measured half-life at 1 µM of individual entries
experiment: in vitro; assay type: in vitro ADME, Male Sprague-Dawley rat; details: rat liver microsomes 0.5 mg/mL, 1 mM NADPH, test compound 1 μM, pH 7.4, 37° C.; read-out: RLM, t1/2
Reply numerically in min, unit not repeated.

# example entries with known answers
> print(dat)
                          given.smiles  measured
1  COc1ccc2[nH]cc(CCN(C)CC(F)(F)F)c2c1      4.55
2         FC(F)(F)CNCCc1c[nH]c2ccccc12      7.63
3      CN(CCc1c[nH]c2ccccc12)CC(F)(F)F      3.95
4   CN(C)CCc1c[nH]c2ccc(OC(F)(F)F)cc12      13.1

Then there is this compound:
Reported half-life at 1 µM for CN(CCc1c[nH]c2cccc(O)c12)CC(F)(F)F was 4.5

====

target: recombinant human MAO-A (Homo sapiens, UniProt P21397); assay: in vitro; type: in vitro ADME; settings: role: substrate, hrMAO-A 0.02 mg/mL, test compound 1 μM, pH 7.4, 37° C.
Sequence (P21397 whole entry): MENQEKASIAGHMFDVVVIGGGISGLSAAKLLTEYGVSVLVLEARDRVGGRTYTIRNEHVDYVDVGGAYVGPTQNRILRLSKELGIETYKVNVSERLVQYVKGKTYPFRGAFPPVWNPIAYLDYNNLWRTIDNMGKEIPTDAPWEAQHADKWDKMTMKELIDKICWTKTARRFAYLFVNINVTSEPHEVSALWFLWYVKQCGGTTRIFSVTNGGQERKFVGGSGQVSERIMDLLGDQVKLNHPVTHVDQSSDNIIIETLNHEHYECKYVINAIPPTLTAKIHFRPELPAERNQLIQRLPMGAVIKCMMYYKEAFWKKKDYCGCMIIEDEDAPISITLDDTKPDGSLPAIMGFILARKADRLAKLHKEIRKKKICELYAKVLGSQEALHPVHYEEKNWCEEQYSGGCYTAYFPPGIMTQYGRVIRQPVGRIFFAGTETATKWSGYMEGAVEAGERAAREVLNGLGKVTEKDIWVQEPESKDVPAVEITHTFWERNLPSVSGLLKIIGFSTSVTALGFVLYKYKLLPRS
Measurement kind: half-life at 1 µM

Lab note: FC(F)(F)CNCCc1c[nH]c2ccccc12 [II-20] gave half-life at 1 µM of > 120 min

====

Listed here are compounds together with their documented EC50.
molecular target: 5-HT2A receptor (Homo sapiens, UniProt P28223); construct: expressed in transfected cells; experiment: Dose-response 5-HT2A functional assay (IP1 formation); format: cell-based; conditions: IP1 formation

These recorded examples may help you get a feel for the data.
> print(dat)
                             given.smiles  measurement.kind   measured
1  Oc1cccc2[nH]cc(CCN(CCC(F)F)CCC(F)F)c12              EC50     383 nM
2    COc1ccc2[nH]cc(CCN(C)CCC(F)(F)F)c2c1              EC50  > 3000 nM

For record FC(F)CCN(CCc1c[nH]c2ccccc12)CCC(F)F the listed EC50 is 596 nM

====

assay: in vivo; format: in vivo, adult, male C57BL/6J mice; settings: mouse, in vivo, po, 10 mg/kg, plasma, 30 min, 10 mg/kg PO, mouse; read-out: PK data, Plasma, 30 min
Measurement kind: concentration at 0.5 h

> print(dat)
                                   compound      measured
1  CN(CCc1c[nH]c2cccc(O)c12)CCC(F)(F)F [III-6]  72 to 180 nM

For the next question, use this compound.
For reference, reported concentration at 0.5 h for CN(CCc1c[nH]c2ccccc12)CCC(F)(F)F [II-6] stands at 390 to 3140 nM

====

target: 5-HT2A receptor (Homo sapiens); construct: expressed in transfected cells; assay: 5-HT2A receptor functional screening assay (efficacy relative to maximal 5-HT response); assay type: cell-based; settings: 50 μM
Measurement kind: activation at 50 µM

Answered examples (5):
> print(dat)
                                   compound  measured
1  Oc1cccc2[nH]cc(CCN(CCC(F)(F)F)CCC(F)(F)F)c12     > 50%
2          FC1(F)CCN(CCc2c[nH]c3ccccc23)CC1    -25.4%
3           CN(CCc1c[nH]c2cccc(O)c12)CC(F)F     > 50%
4  FC(F)(F)CCN(CCc1c[nH]c2ccccc12)CCC(F)(F)F     > 50%
5              CN(CCc1c[nH]c2ccccc12)CC(F)F     30.3%

For reference, reported activation at 50 µM for Oc1cccc2[nH]cc(CCN(CCC(F)F)CCC(F)F)c12 stands at > 50%

Recorded activation at 50 µM (compound CN(CCc1c[nH]c2ccccc12)[S+]([O-])C(F)(F)F (stereo not shown) ): -36.9%
